- target_under_test: Guanine nucleotide-binding protein G(I)/G(S)/G(T) subunit beta-1/gamma-2 (Homo sapiens, UniProt P62873+P59768)
- Sequence (P59768 2-71 partner limits assumed): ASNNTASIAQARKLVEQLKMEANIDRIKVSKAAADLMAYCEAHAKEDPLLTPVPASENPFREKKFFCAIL
- Sequence (P62873 2-340 limits assumed): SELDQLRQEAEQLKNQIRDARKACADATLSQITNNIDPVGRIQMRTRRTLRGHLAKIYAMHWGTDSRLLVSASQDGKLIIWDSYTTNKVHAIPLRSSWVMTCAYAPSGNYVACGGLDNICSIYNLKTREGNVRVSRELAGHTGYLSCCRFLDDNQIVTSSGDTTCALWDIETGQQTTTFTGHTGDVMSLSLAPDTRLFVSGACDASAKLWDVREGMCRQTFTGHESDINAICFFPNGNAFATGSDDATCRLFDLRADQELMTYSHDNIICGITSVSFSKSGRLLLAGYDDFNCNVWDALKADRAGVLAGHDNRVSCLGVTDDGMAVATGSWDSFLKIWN
- test_method_notes: Inhibition of SIGKAFKILGYPDYD binding to biotinylated Gbeta1gamma2 (unknown origin) incubated for 1 hr by phage ELISA
- Assay type: protein-complex assay
Active and inactive are the calls of the source. The calls are words filed in the database; no cut-off is given here.
test_readout: inhibition

Cc1c2cc(O)c(=O)cc-2oc2cc(O)c(O)cc12 :: inactive
O=c1cc2oc3cc(O)c(O)cc3c(-c3ccccc3O)c-2cc1O :: inactive
Cc1c2ccc(=O)cc-2oc2cc(O)ccc12 :: inactive
O=C(O)c1ccc(-c2c3ccc(=O)cc-3oc3cc(O)ccc23)cc1 :: inactive

----------
Some compounds, each annotated with its measured pIC50.
- target_under_test: Guanine nucleotide-binding protein G(I)/G(S)/G(T) subunit beta-1/gamma-2 (Homo sapiens, UniProt P59768+P62873)
- test_method_notes: Inhibition of SIGKAFKILGYPDYD binding to biotinylated Gbeta1gamma2 (unknown origin) incubated for 1 hr by phage ELISA
Quick note: pIC50 values are minus log10 of concentrations in mol/L.

CC1C2C=CC1C(c1c3ccc(=O)cc-3oc3cc(O)ccc13)C2C(=O)O (configuration not stated) :: 4.85

Now look at this one.
[ask] Consider the compound O=C(O)c1cccc2cccc(-c3c4ccc(=O)c(O)c-4oc4c(O)c(O)ccc34)c12 and give its measured pIC50.
[reply] 6.89
